# assay name: Approximate solubility of Compound 1 Form I at 25° C. and 50° C. (visual observation)
# Format: physicochemical
# assay conditions: acetonitrile, 25 °C, organic solvent or mixture, thermodynamic from solid
reported metric: solubility

What value of measured solubility is listed for O=C1CC[C@H](N2C(=O)c3cccc4c(Cc5ccc(CN6CCOCC6)cc5)ccc2c34)C(=O)N1 [Compound 1 Form I] ? < 5000 µg/mL

* * *

# assay name: Approximate solubility of Compound 1 Form I at 25° C. and 50° C. (visual observation)
# Assay type: physicochemical
# assay conditions: heptane, 25 °C, organic solvent or mixture, thermodynamic from solid
reported metric: solubility

What value of measured solubility is listed for O=C1CC[C@H](N2C(=O)c3cccc4c(Cc5ccc(CN6CCOCC6)cc5)ccc2c34)C(=O)N1 [Compound 1 Form I] ? < 5 mg/mL

* * *

# assay name: Approximate solubility of Compound 1 Form I at 25° C. and 50° C. (visual observation)
# Assay type: physicochemical
# assay conditions: ethanol, 25 °C, organic solvent or mixture, thermodynamic from solid
reported metric: solubility

What value of measured solubility is listed for O=C1CC[C@H](N2C(=O)c3cccc4c(Cc5ccc(CN6CCOCC6)cc5)ccc2c34)C(=O)N1 [Compound 1 Form I] ? < 5 mg/mL

* * *

# assay name: Approximate solubility of Compound 1 Form I at 25° C. and 50° C. (visual observation)
# Type: physicochemical
# assay conditions: MTBE, 50 °C, organic solvent or mixture, thermodynamic from solid
reported metric: solubility

What value of measured solubility is listed for O=C1CC[C@H](N2C(=O)c3cccc4c(Cc5ccc(CN6CCOCC6)cc5)ccc2c34)C(=O)N1 [Compound 1 Form I] ? < 10000 µg/mL

* * *

# assay name: Approximate solubility of Compound 1 Form I at 25° C. and 50° C. (visual observation)
# Type: physicochemical
# assay conditions: ethyl acetate, 25 °C, organic solvent or mixture, thermodynamic from solid
reported metric: solubility

What value of measured solubility is listed for O=C1CC[C@H](N2C(=O)c3cccc4c(Cc5ccc(CN6CCOCC6)cc5)ccc2c34)C(=O)N1 [Compound 1 Form I] ? < 5000 µg/mL

* * *

# assay name: Approximate solubility of Compound 1 Form I at 25° C. and 50° C. (visual observation)
# Type: physicochemical
# assay conditions: THF:Water (v:v = 95:5), 25 °C, organic solvent or mixture, thermodynamic from solid, THF:Water (v:v = 95:5), 25° C.
reported metric: solubility

What value of measured solubility is listed for O=C1CC[C@H](N2C(=O)c3cccc4c(Cc5ccc(CN6CCOCC6)cc5)ccc2c34)C(=O)N1 [Compound 1 Form I] ? 17 to 20 mg/mL

* * *

# assay name: Approximate solubility of Compound 1 Form I at 25° C. and 50° C. (visual observation)
# Format: physicochemical
# assay conditions: DMSO, 25 °C, organic solvent or mixture, thermodynamic from solid
reported metric: solubility

What value of measured solubility is listed for O=C1CC[C@H](N2C(=O)c3cccc4c(Cc5ccc(CN6CCOCC6)cc5)ccc2c34)C(=O)N1 [Compound 1 Form I] ? 83 to 125 mg/mL

* * *

# assay name: Approximate solubility of Compound 1 Form I at 25° C. and 50° C. (visual observation)
# Format: physicochemical
# assay conditions: ethanol, 50 °C, organic solvent or mixture, thermodynamic from solid
# Method: Max. volume of each solvent added was 1 mL. Approximate solubility was determined by visual observation.
reported metric: solubility

What value of measured solubility is listed for O=C1CC[C@H](N2C(=O)c3cccc4c(Cc5ccc(CN6CCOCC6)cc5)ccc2c34)C(=O)N1 [Compound 1 Form I] ? < 10000 µg/mL

* * *

# assay name: Approximate solubility of Compound 1 Form I at 25° C. and 50° C. (visual observation)
# Assay type: physicochemical
# assay conditions: DCM, 50 °C, organic solvent or mixture, thermodynamic from solid
reported metric: solubility

What value of measured solubility is listed for O=C1CC[C@H](N2C(=O)c3cccc4c(Cc5ccc(CN6CCOCC6)cc5)ccc2c34)C(=O)N1 [Compound 1 Form I] ? 16 to 25 mg/mL

* * *

# assay name: Approximate solubility of Compound 1 Form I at 25° C. and 50° C. (visual observation)
# Format: physicochemical
# assay conditions: heptane, 50 °C, organic solvent or mixture, thermodynamic from solid
reported metric: solubility

What value of measured solubility is listed for O=C1CC[C@H](N2C(=O)c3cccc4c(Cc5ccc(CN6CCOCC6)cc5)ccc2c34)C(=O)N1 [Compound 1 Form I] ? < 10000 µg/mL

* * *

# assay name: Approximate solubility of Compound 1 Form I at 25° C. and 50° C. (visual observation)
# Type: physicochemical
# assay conditions: acetone, 50 °C, organic solvent or mixture, thermodynamic from solid
reported metric: solubility

What value of measured solubility is listed for O=C1CC[C@H](N2C(=O)c3cccc4c(Cc5ccc(CN6CCOCC6)cc5)ccc2c34)C(=O)N1 [Compound 1 Form I] ? < 10000 µg/mL

* * *

# assay name: Approximate solubility of Compound 1 Form I at 25° C. and 50° C. (visual observation)
# Type: physicochemical
# assay conditions: MTBE, 25 °C, organic solvent or mixture, thermodynamic from solid
reported metric: solubility

What value of measured solubility is listed for O=C1CC[C@H](N2C(=O)c3cccc4c(Cc5ccc(CN6CCOCC6)cc5)ccc2c34)C(=O)N1 [Compound 1 Form I] ? < 5000 µg/mL

* * *

# assay name: Approximate solubility of Compound 1 Form I at 25° C. and 50° C. (visual observation)
# Assay type: physicochemical
# assay conditions: acetonitrile, 50 °C, organic solvent or mixture, thermodynamic from solid
reported metric: solubility

What value of measured solubility is listed for O=C1CC[C@H](N2C(=O)c3cccc4c(Cc5ccc(CN6CCOCC6)cc5)ccc2c34)C(=O)N1 [Compound 1 Form I] ? < 10000 µg/mL

* * *

# assay name: Approximate solubility of Compound 1 Form I at 25° C. and 50° C. (visual observation)
# Assay type: physicochemical
# assay conditions: Ethanol:Water (8:2, v:v), 50 °C, organic solvent or mixture, thermodynamic from solid, Ethanol:Water (8:2, v:v), 50° C.
reported metric: solubility

What value of measured solubility is listed for O=C1CC[C@H](N2C(=O)c3cccc4c(Cc5ccc(CN6CCOCC6)cc5)ccc2c34)C(=O)N1 [Compound 1 Form I] ? < 10000 µg/mL

* * *

# assay name: Approximate solubility of Compound 1 Form I at 25° C. and 50° C. (visual observation)
# Assay type: physicochemical
# assay conditions: methanol, 50 °C, organic solvent or mixture, thermodynamic from solid, approximate, visual observation
reported metric: solubility

What value of measured solubility is listed for O=C1CC[C@H](N2C(=O)c3cccc4c(Cc5ccc(CN6CCOCC6)cc5)ccc2c34)C(=O)N1 [Compound 1 Form I] ? < 10000 µg/mL

* * *

# assay name: Approximate solubility of Compound 1 Form I at 25° C. and 50° C. (visual observation)
# Assay type: physicochemical
# assay conditions: water, 50 °C, thermodynamic from solid
reported metric: solubility

What value of measured solubility is listed for O=C1CC[C@H](N2C(=O)c3cccc4c(Cc5ccc(CN6CCOCC6)cc5)ccc2c34)C(=O)N1 [Compound 1 Form I] ? < 10000 µg/mL

* * *

# assay name: Approximate solubility of Compound 1 Form I at 25° C. and 50° C. (visual observation)
# Assay type: physicochemical
# assay conditions: ethyl acetate, 50 °C, organic solvent or mixture, thermodynamic from solid
reported metric: solubility

What value of measured solubility is listed for O=C1CC[C@H](N2C(=O)c3cccc4c(Cc5ccc(CN6CCOCC6)cc5)ccc2c34)C(=O)N1 [Compound 1 Form I] ? < 10000 µg/mL
